assay: xn = mol fraction of the nth substance listed, in the solute-free solvent; details: 288.15 K; x2 = 0.8
Label fulfilled when solubility (g/100 g solution) >= 3; otherwise not fulfilled.

molecule	class label
CCCCOc1ccc(C(=O)CCN2CCCCC2)cc1.Cl + CCO + CCOC(C)=O	fulfilled
CCCCOc1ccc(C(=O)CCN2CCCCC2)cc1.Cl + CCO + CCCCCC	fulfilled
CC(=O)OC(c1ccccc1)C(Cl)(Cl)Cl (stereo not drawn) + CC(=O)O + O	fulfilled
COC1=CC(=O)CC(C)C12Oc1c(Cl)c(OC)cc(OC)c1C2=O (stereo not drawn) + CC(=O)CC(C)C + CC(C)O	not fulfilled
CC(=O)OC(c1ccccc1)C(Cl)(Cl)Cl (stereo not drawn) + CCO + O	not fulfilled

## Input Please indicate if the recorded solubility (g/100 g solution) for O=C1CCc2ccc(OCCCCN3CCN(c4cccc(Cl)c4Cl)CC3)cc2N1 + CCC(C)=O + CCCO meets or exceeds 3.
## Output not fulfilled

## Input Please indicate if the recorded solubility (g/100 g solution) for CCCCOc1ccc(C(=O)CCN2CCCCC2)cc1.Cl + CCO + O meets or exceeds 3.
## Output fulfilled

## Input Please indicate if the recorded solubility (g/100 g solution) for O=C1CCc2ccc(OCCCCN3CCN(c4cccc(Cl)c4Cl)CC3)cc2N1 + CCC(C)=O + CC(C)=O meets or exceeds 3.
## Output not fulfilled

---

assay: xn = mol fraction of the nth substance listed, in the solute-free solvent; conditions: 323.15 K; x2 = 0.8
Property: solubility (g/100 g solution); scope: individual compounds
Could you keep your reply to the number by itself?

Here are 4 compounds together with their reported answers.
compound	test readout	measured result
CC(=O)OC(c1ccccc1)C(Cl)(Cl)Cl (stereo not given) + CCO + O	solubility (g/100 g solution)	16.4
COC1=CC(=O)CC(C)C12Oc1c(Cl)c(OC)cc(OC)c1C2=O (stereo not given) + CCC(C)=O + CC(C)O	solubility (g/100 g solution)	4.16
CCCCOc1ccc(C(=O)CCN2CCCCC2)cc1.Cl + CO + C1CCOC1	solubility (g/100 g solution)	65.8
CC(=O)OC(c1ccccc1)C(Cl)(Cl)Cl (stereo not given) + CC(C)O + O	solubility (g/100 g solution)	18.5

Turning now to a further record.
## Input Identify measured solubility (g/100 g solution) associated with O=C(O)c1ccc(C(=O)O)o1 + C1CCOC1 + O
## Output 6.79

---

experiment: xn = mol fraction of the nth substance listed, in the solute-free solvent; settings: 298.15 K; x2 = 0.7
Property: solubility (g/100 g solution); scope: individual molecules
Could you keep your reply to the number by itself?

Here are 4 molecules together with their reported answers.
molecule	measured result
CC(=O)OC(c1ccccc1)C(Cl)(Cl)Cl (stereo not given) + CC(C)O + O	4.15
COC1=CC(=O)CC(C)C12Oc1c(Cl)c(OC)cc(OC)c1C2=O (stereo not given) + CC(=O)CC(C)C + CC(C)O	0.943
O=C1CCc2ccc(OCCCCN3CCN(c4cccc(Cl)c4Cl)CC3)cc2N1 + CCC(C)=O + CCCO	3.68
CCCCOc1ccc(C(=O)CCN2CCCCC2)cc1.Cl + CCO + CCCCCC	29.4

Turning now to a further record.
## Input Identify measured solubility (g/100 g solution) associated with COC1=CC(=O)CC(C)C12Oc1c(Cl)c(OC)cc(OC)c1C2=O (stereo not given) + CC(C)=O + CC(C)O
## Output 2.55
